system: upland rice (Oryza sp., var. Tebonnet, RICE); experiment: Post-emerge test, crop safety; type: in vivo; details: post-emerge, 250 g ai/ha, 14 days after application, rating scale 0-100
experimentalReadout: RICE phytotoxicity rating (crop damage)
API note: the answer field is a bare number with no unit suffix.

Solved cases (2 shown):
# compound, studySystem, readoutNumber
measured = [
    ("COc1c(Cl)cc(F)c(-n2c(=O)cc(C(F)(F)F)n(C)c2=O)c1NC(=O)C=Cc1ccccc1[N+](=O)[O-]", "upland rice (Oryza sp., var. Tebonnet, RICE)", 50),
    ("N#CCOc1c(Cl)cc(F)c(-n2c(=O)cc(C(F)(F)F)n(N)c2=O)c1NC(=O)c1ccc2ccccc2c1", "upland rice (Oryza sp., var. Tebonnet, RICE)", 40),
]

Form field - read-out: RICE phytotoxicity rating (crop damage); system: upland rice (Oryza sp., var. Tebonnet, RICE); submitted item: COc1c(Br)cc(F)c(-n2c(=O)cc(C(F)(F)F)n(C)c2=O)c1N(C(=O)C=Cc1ccccc1)C(=O)C=Cc1ccccc1 [2-178]
0

Another compound to check: COc1c(Cl)cc(Cl)c(-n2c(=O)cc(C(F)(F)F)n(C)c2=O)c1NC(=O)c1ccc2ccccc2c1
35

---

test system: johnsongrass (Sorghum halepense, SORHA); experiment: Post-emerge test, greenhouse herbicide activity screening; type: in vivo; details: Rate 63 g ai/ha; rating scale 0-100 (0 no damage, 100 complete death); 14 days after application
Below is a list of entries, each paired with its recorded Post-emerge Herbicidal Activity, phytotoxicity rating SORHA value.
Keep it simple and answer with nothing but the number.

# compound, readoutNumber
rows = [
    ("C=CCOC(=O)C(C)(Cl)Cc1c(OC)c(Cl)cc(F)c1-n1c(=O)cc(C(F)(F)F)n(C)c1=O (stereo not drawn) [14-43]", 80),
    ("COc1c(Cl)cc(F)c(-n2c(=O)cc(C(F)(F)F)n(C)c2=O)c1CC(Cl)C(=O)OCC(F)(F)C(F)(F)C(F)(F)F (single isomer, unassigned) [14-24]", 0),
    ("CCOC(=O)C(Cl)Cc1c(C)c(Cl)cc(F)c1-n1c(=O)cc(C(F)(F)F)n(C)c1=O (stereo not drawn) [14-54]", 0),
    ("COc1c(Cl)cc(F)c(-n2c(=O)cc(C(F)(F)F)n(C)c2=O)c1CC(C)(Cl)C(=O)OCCSC (stereo not drawn) [14-48]", 0),
    ("C#CCOC(=O)C(Cl)Cc1c(OC)c(Cl)cc(F)c1-n1c(=O)cc(C(F)(F)F)n(C)c1=O (single isomer, unassigned) [14-19]", 0),
]

For the next question, use this compound.
Quick one: Post-emerge Herbicidal Activity, phytotoxicity rating SORHA for CCOC(=O)CCc1c(OC)c(Cl)cc(F)c1-n1c(=O)cc(C(F)(F)F)n(C)c1=O [14-1] ?
25

---

Quick list: Post-emerge Herbicidal Activity, phytotoxicity rating SETVI per entry.
tested on: green foxtail (Setaria viridis, SETVI); test: Post-emerge test, greenhouse herbicide activity screening; type: in vivo; settings: Rate 250 g ai/ha; rating scale 0-100 (0 no damage, 100 complete death); 14 days after application

# molecule, result
data = [
    ("COc1c(Cl)cc(F)c(-n2c(=O)cc(C(F)(F)F)n(C)c2=O)c1CC(Cl)C(=O)OCC(Br)CBr (single isomer, unassigned) [14-30]", 30),
    ("COc1c(Cl)cc(F)c(-n2c(=O)cc(C(F)(F)F)n(C)c2=O)c1CC(Cl)C(=O)OCC(F)(F)C(F)(F)C(F)(F)F (single isomer, unassigned) [14-23]", 70),
    ("CCOC(=O)C(Cl)Cc1cc(Cl)cc(F)c1-n1nc(C)n(C(F)F)c1=O (centres unmarked) [14-52]", 0),
    ("CCCCOC(=O)C(Cl)Cc1c(OC)c(Cl)cc(F)c1-n1c(=O)cc(C(F)(F)F)n(C)c1=O (single isomer, unassigned) [14-9]", 60),
    ("COc1c(Cl)cc(F)c(-n2c(=O)cc(C(F)(F)F)n(C)c2=O)c1CC(C)(Cl)C(=O)OC(C)C (centres unmarked) [14-39]", 100),
    ("COc1c(Cl)cc(F)c(-n2c(=O)cc(C(F)(F)F)n(C)c2=O)c1CC(Cl)C(=O)OCCC(C)C (single isomer, unassigned) [14-16]", 30),
    ("COC(=O)C(Cl)Cc1c(OC)c(Cl)cc(F)c1-n1c(=O)cc(C(F)(F)F)n(C)c1=O (centres unmarked) [14-3]", 70),
    ("CCOC(=O)C(Br)Cc1c(OC)c(Cl)cc(F)c1-n1c(=O)cc(C(F)(F)F)n(C)c1=O (single isomer, unassigned) [14-33]", 90),
]

Would you mind telling me what Post-emerge Herbicidal Activity, phytotoxicity rating SETVI value was observed for CCCCCCOC(=O)C(C)(Cl)Cc1c(OC)c(Cl)cc(F)c1-n1c(=O)cc(C(F)(F)F)n(C)c1=O (centres unmarked) [14-38] ?
100

Next entry: O=C(Nc1cc(Cl)ccc1N1C(=O)c2ccccc2C1=O)c1ccc2ccccc2c1 [Compound 13-5]
10

---

test system: field corn (Zea mays L., var. Dekalb 535, CORN); test: Pre-emerge test, crop safety; type: in vivo; conditions: 63 g ai/ha; crop damage rating 0-100, 14 days after application
experimentalReadout: Pre-emerge Herbicidal Activity CORN

Guide cases for Pre-emerge Herbicidal Activity CORN, answers given:
# compound, Pre-emerge Herbicidal Activity CORN
rows = [
    ("Cn1c(C(F)(F)F)cc(=O)n(-c2c(F)cc(Cl)c(Oc3ncccc3[N+](=O)[O-])c2NC(=O)c2ccc3ccccc3c2)c1=O [2-199]", 95),
    ("COc1ccc(COC(=O)Nc2c(OC)c(Cl)cc(F)c2-n2c(=O)cc(C(F)(F)F)n(C)c2=O)cc1 [4-40]", 0),
    ("COc1c(Cl)ccc(-n2c(=O)cc(C(F)(F)F)n(C)c2=O)c1NC(=O)c1ccc2ccccc2c1 [2-202]", 0),
    ("COc1c(Cl)cc(F)c(-n2c(=O)cc(C(F)(F)F)n(C)c2=O)c1NC(=O)N(Cc1ccccc1)c1ccccc1 [Compound 3-23]", 0),
    ("COc1c(Cl)cc(F)c(-n2c(=O)cc(C(F)(F)F)n(C)c2=O)c1NC(=O)OCc1c(F)cccc1F [4-29]", 80),
    ("COc1c(Cl)cc(F)c(-n2c(=O)cc(C(F)(F)F)n(C)c2=O)c1NC(=O)Oc1c(C)cc(C)cc1C [4-25]", 0),
]

Item under review: COc1c(Cl)cc(F)c(-n2c(=O)cc(C(F)(F)F)n(C)c2=O)c1NC(=O)OCc1ccc(F)c(F)c1 [4-30] . Reported Pre-emerge Herbicidal Activity CORN?
30

Next compound up: COc1c(Cl)cc(F)c(-n2c(=O)cc(C(F)(F)F)n(C)c2=O)c1NC(=O)OCc1cccc(F)c1 [4-44]
70

And then COc1c(Cl)cc(F)c(-n2c(=O)cc(C(F)(F)F)n(C)c2=O)c1NC(=O)OCc1ccccc1C(F)(F)F [4-33] , what is it?
10

How about this compound: COc1c(Cl)cc(F)c(-n2c(=O)cc(C(F)(F)F)n(C)c2=O)c1NC(=O)OCc1ccc(C(C)C)cc1 [4-42]
0

---

Measured phytotoxicity rating DIGSA accompanies every entry in the list below.
System: large crabgrass (Digitaria sanguinalis, DIGSA)
Assay: Pre-emerge test, greenhouse herbicide activity screening
Type: in vivo
Details: pre-emerge, 63 g ai/ha, 14 days after application, scale 0-100
Procedure: A standard greenhouse herbicide activity screening system was used to evaluate the herbicidal efficacy and crop safety of these test compounds. […] At 14 days after application of the test materials, phytotoxicity ratings were recorded. […]
Reply: number alone, nothing else.

As a guide, the following entries are already answered.
# molecule, phytotoxicity rating DIGSA
data = [
    ("COc1c(Br)cc(F)c(-n2c(=O)cc(C(F)(F)F)n(C)c2=O)c1NC(=O)C=Cc1ccccc1 [2-175]", 0),
    ("COc1c(Cl)cc(F)c(-n2c(=O)cc(C(F)(F)F)n(C)c2=O)c1NC(=O)C=Cc1ccccc1F [2-125]", 30),
    ("CCOC(=O)C(C)SCC(=O)Nc1c(OC)c(Cl)cc(F)c1-n1c(=O)cc(C(F)(F)F)n(C)c1=O (stereo not shown) [2-171]", 20),
]

Kindly consider the entry below.
Quick check: phytotoxicity rating DIGSA on large crabgrass (Digitaria sanguinalis, DIGSA), item COc1c(Cl)cc(F)c(-n2c(=O)cc(C(F)(F)F)n(C)c2=O)c1NC(=O)c1ccc2c(C#N)cccc2c1 [2-163] ?
35

---

system: barnyardgrass (Echinochloa crus-galli, ECHCG); assay: Pre-emerge test, greenhouse herbicide activity screening; type: in vivo; conditions: 250 g ai/ha; pre-emerge; rated 14 days after application; 0 = no damage, 100 = complete death
The label is Satisfied for Pre-emerge Herbicidal Activity ECHCG (phytotoxicity rating, scale 0-100) below 50 and Not satisfied for Pre-emerge Herbicidal Activity ECHCG (phytotoxicity rating, scale 0-100) equal to or exceeding 50.

# molecule, label
records = [
    ("Cn1c(C(F)(F)F)cc(=O)n(-c2c(F)cc(Cl)c(OCc3ccccc3)c2N)c1=O", "Not satisfied"),
    ("Cc1c(Cl)cc(F)c(-n2c(=O)cc(C(F)(F)F)n(C)c2=O)c1N", "Not satisfied"),
    ("COc1c(Cl)cc(F)c(-n2c(=O)cc(C(F)(F)F)n(C)c2=O)c1NC(=O)c1ccc(C)cc1", "Not satisfied"),
]

Regarding C=Cc1ccc(C(=O)Nc2c(OC)c(Cl)cc(F)c2-n2c(=O)cc(C(F)(F)F)n(C)c2=O)cc1 , kindly confirm whether its Pre-emerge Herbicidal Activity ECHCG (phytotoxicity rating, scale 0-100) is beneath 50.
Not satisfied

How about Cn1c(C(F)(F)F)cc(=O)n(-c2c(F)cc(Cl)c(OC3CCCC3)c2N)c1=O ?
Not satisfied

Lookup COc1c(Cl)cc(F)c(-n2c(=O)cc(C(F)(F)F)n(C)c2=O)c1NC(=O)C=C(C)C
Not satisfied

Entry to check: COc1c(Cl)cc(F)c(-n2c(=O)cc(C(F)(F)F)n(C)c2=O)c1NC(=O)C(C)(C)C
Satisfied

What do you have for CCOC(=O)C(C)Nc1c(OC)c(Cl)cc(F)c1-n1c(=O)cc(C(F)(F)F)n(C)c1=O (stereo not shown) ?
Satisfied

Follow-up item: COc1c(Cl)cc(F)c(-n2c(=O)cc(C(F)(F)F)n(C)c2=O)c1[N+](=O)[O-]
Satisfied

# repeat for O=c1cc(C(F)(F)F)[nH]c(=O)n1-c1c(F)cc(Cl)c(O)c1[N+](=O)[O-]
Satisfied

Do the same for CCOC(=O)CC(=O)Nc1c(OC(=O)CC(=O)OCC)c(Cl)cc(F)c1-n1c(=O)cc(C(F)(F)F)n(C)c1=O please
Satisfied

Similarly, COc1c(Cl)cc(F)c(-n2c(=O)cc(C(F)(F)F)n(C)c2=O)c1NC(=O)c1ccc(C(C)(C)C)cc1 ?
Satisfied

Next record, please: CCOC(=O)C(C)Nc1cc(OC(F)F)cc(F)c1-n1c(=O)cc(C(F)(F)F)n(C)c1=O (stereo not shown)
Not satisfied

Item: CCc1ccc(C(=O)Nc2c(OCC#N)c(Cl)cc(F)c2-n2c(=O)cc(C(F)(F)F)n(C)c2=O)cc1
Satisfied

Also check CCn1c(C(F)(F)F)cc(=O)n(-c2c(F)cc(Cl)c(OC)c2N)c1=O
Satisfied
